Tested on: ATP;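 note: ATP exposure 15 min at 22 °C before imaging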
Experiment: switch fluorescence ratio, 500 uM ATP over buffer (Cy3 cluster intensity, sum of 5 cycles each) (fold (ratio)); higher = stronger signal-on switching upon ATP binding; sequences stand for … in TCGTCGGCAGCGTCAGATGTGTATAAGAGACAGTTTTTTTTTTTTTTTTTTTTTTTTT…TC
Settings: aptamer strand: ATP DNA aptamer (quencher-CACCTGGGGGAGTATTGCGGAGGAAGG + anchor), 100 nM annealed; ATP concentration: 500 uM
Readout Name: switch fluorescence ratio
// return a plain number; no unit text

Below are worked cases with known answers.
ACAGGGTGCA	1.03
CGTTTTGGGG	0.999
AAGAAGTGTA	1.01
TTCCTTGCGG	1.08
CACATACATT	1.24

Q. State, in one line, measured switch fluorescence ratio of GCTTACAACG
A. 1.02

Q. State, in one line, measured switch fluorescence ratio of GCTAGATGTA
A. 1.02

Q. State, in one line, measured switch fluorescence ratio of GGGGTTGGAG
A. 0.979

Q. State, in one line, measured switch fluorescence ratio of CTAAGAGGAC
A. 0.992

Q. State, in one line, measured switch fluorescence ratio of GAAGGGGTGT
A. 1.01

Q. State, in one line, measured switch fluorescence ratio of TTACATGTCC
A. 1.04

Q. State, in one line, measured switch fluorescence ratio of GATTTTGGAC
A. 1.03

* * *

Listed here: items and their measured switch fluorescence ratio.
System: ATP;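 note: ATP exposure 15 min at 22 °C before imaging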
Assay: switch fluorescence ratio, 500 uM ATP over buffer (Cy3 cluster intensity, sum of 5 cycles each) (fold (ratio)); higher = stronger signal-on switching upon ATP binding; sequences stand for … in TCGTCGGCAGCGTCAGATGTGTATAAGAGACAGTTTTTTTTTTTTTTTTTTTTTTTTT…TC
Conditions: aptamer strand: ATP DNA aptamer (quencher-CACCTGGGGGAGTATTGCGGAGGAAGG + anchor), 100 nM annealed; ATP concentration: 500 uM
// return a plain number; no unit text

TTGGCCGATG	1
ACCCAGCGCT	1.04
GAGCTGGGCG	0.969

Q. State, in one line, measured switch fluorescence ratio of GACTTATGGG
A. 1.04

Q. State, in one line, measured switch fluorescence ratio of ATGTGGGGGT
A. 0.994

Q. State, in one line, measured switch fluorescence ratio of TTATGGCTGA
A. 0.988

Q. State, in one line, measured switch fluorescence ratio of AATTAATCCA
A. 0.997

Q. State, in one line, measured switch fluorescence ratio of GAGTAGGGGG
A. 0.993

* * *

Tested on: ATP;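 note: ATP exposure 15 min at 22 °C before imaging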
Assay: switch fluorescence ratio, 500 uM ATP over buffer (Cy3 cluster intensity, sum of 5 cycles each) (fold (ratio)); higher = stronger signal-on switching upon ATP binding; sequences stand for … in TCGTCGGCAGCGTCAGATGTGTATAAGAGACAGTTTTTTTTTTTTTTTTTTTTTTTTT…TC
Conditions: aptamer strand: ATP DNA aptamer (quencher-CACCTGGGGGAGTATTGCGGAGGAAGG + anchor), 100 nM annealed; ATP concentration: 500 uM
Listed here: items and their measured switch fluorescence ratio.
// return a plain number; no unit text

GGGGTAAGCG	0.978
GATTAGGGGG	1.02
GGGATGGGTC	0.985
AGTTGATTGT	0.989
AACAGGGTCT	0.991

Q. Identify measured switch fluorescence ratio obtained with ATP for CGGGGAAAGT .
A. 0.996

Q. Identify measured switch fluorescence ratio obtained with ATP for TTGGGGAAAA .
A. 1.04

Q. Identify measured switch fluorescence ratio obtained with ATP for GTTCCGGTTT .
A. 1.01

Q. Identify measured switch fluorescence ratio obtained with ATP for GGTATGGGAG .
A. 0.991

Q. Identify measured switch fluorescence ratio obtained with ATP for GATTGAATTG .
A. 0.948

Q. Identify measured switch fluorescence ratio obtained with ATP for TTTTGAAATG .
A. 0.965

Q. Identify measured switch fluorescence ratio obtained with ATP for TAATAAGCGG .
A. 0.976

Q. Identify measured switch fluorescence ratio obtained with ATP for GAACGATACA .
A. 1.33

Q. Identify measured switch fluorescence ratio obtained with ATP for TGGAGGGATG .
A. 1.01

Q. Identify measured switch fluorescence ratio obtained with ATP for AAATTTATTT .
A. 0.993

Q. Identify measured switch fluorescence ratio obtained with ATP for GTTAAAAACA .
A. 1.03

Q. Identify measured switch fluorescence ratio obtained with ATP for CGGGGTGAGA .
A. 0.981

* * *

Tested on: ATP;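 note: ATP exposure 15 min at 22 °C before imaging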
Test: switch fluorescence ratio, 500 uM ATP over buffer (Cy3 cluster intensity, sum of 5 cycles each) (fold (ratio)); higher = stronger signal-on switching upon ATP binding; sequences stand for … in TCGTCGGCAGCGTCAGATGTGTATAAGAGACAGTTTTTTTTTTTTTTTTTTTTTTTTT…TC
Details: aptamer strand: ATP DNA aptamer (quencher-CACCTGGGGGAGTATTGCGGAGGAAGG + anchor), 100 nM annealed; ATP concentration: 500 uM
Listed here: items and their measured switch fluorescence ratio.
// return a plain number; no unit text

Below are worked cases with known answers.
CCGGGGTCGC	1
TTGTTGTTAT	0.991
CAGGTGTCTG	1.13

Q. State, in one line, measured switch fluorescence ratio of TGGTATGTGT
A. 1

Q. State, in one line, measured switch fluorescence ratio of TTTCGACGTT
A. 0.99

Q. State, in one line, measured switch fluorescence ratio of AGTGTGGATT
A. 1.03

Q. State, in one line, measured switch fluorescence ratio of TAGAAGTGCG
A. 1.01

Q. State, in one line, measured switch fluorescence ratio of CAAATTTGG
A. 1.05

Q. State, in one line, measured switch fluorescence ratio of TAAATTAGGA
A. 0.988

Q. State, in one line, measured switch fluorescence ratio of CGTTAGTGCG
A. 1

Q. State, in one line, measured switch fluorescence ratio of TAGGTCGGCC
A. 1

* * *

System: ATP;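 note: ATP exposure 15 min at 22 °C before imaging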
Experiment: switch fluorescence ratio, 500 uM ATP over buffer (Cy3 cluster intensity, sum of 5 cycles each) (fold (ratio)); higher = stronger signal-on switching upon ATP binding; sequences stand for … in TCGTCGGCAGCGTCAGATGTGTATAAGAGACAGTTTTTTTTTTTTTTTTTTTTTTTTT…TC
Conditions: aptamer strand: ATP DNA aptamer (quencher-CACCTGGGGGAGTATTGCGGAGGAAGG + anchor), 100 nM annealed; ATP concentration: 500 uM
Listed here: items and their measured switch fluorescence ratio.

Below are worked cases with known answers.
AGATATAATA	1.02
CATGATGTGT	1
TTCAGGCTTT	1.01
TACGAGGTTG	1
AATTATTTTG	1

Q. Identify measured switch fluorescence ratio obtained with ATP for TTTTTTGCAG .
A. 0.987

Q. Identify measured switch fluorescence ratio obtained with ATP for TTTTAGTGCT .
A. 1.01

Q. Identify measured switch fluorescence ratio obtained with ATP for GTGGGGGTAG .
A. 0.99

Q. Identify measured switch fluorescence ratio obtained with ATP for GCGAAAAGGA .
A. 1.02

Q. Identify measured switch fluorescence ratio obtained with ATP for TGCTGCCGGT .
A. 1.02

Q. Identify measured switch fluorescence ratio obtained with ATP for CAATGATGAC .
A. 1.01

Q. Identify measured switch fluorescence ratio obtained with ATP for TTTTTAGATT .
A. 1.02

Q. Identify measured switch fluorescence ratio obtained with ATP for GAAGTGGGGT .
A. 0.995

Q. Identify measured switch fluorescence ratio obtained with ATP for TGATTTTAAG .
A. 0.999

Q. Identify measured switch fluorescence ratio obtained with ATP for TTTGTCCGGT .
A. 0.971

Q. Identify measured switch fluorescence ratio obtained with ATP for CAATACTTAT .
A. 1.01

Q. Identify measured switch fluorescence ratio obtained with ATP for GCGGGGCTAG .
A. 0.989

Q. Identify measured switch fluorescence ratio obtained with ATP for AAATGGTTTT .
A. 1

Q. Identify measured switch fluorescence ratio obtained with ATP for GATTTTTCAG .
A. 1.02

Q. Identify measured switch fluorescence ratio obtained with ATP for GGTATTTTTA .
A. 0.976

Q. Identify measured switch fluorescence ratio obtained with ATP for GTTCGAGAGC .
A. 0.995

Q. Identify measured switch fluorescence ratio obtained with ATP for CATTAGGGGT .
A. 0.978

* * *

Tested on: ATP;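 note: ATP exposure 15 min at 22 °C before imaging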
Test: switch fluorescence ratio, 500 uM ATP over buffer (Cy3 cluster intensity, sum of 5 cycles each) (fold (ratio)); higher = stronger signal-on switching upon ATP binding; sequences stand for … in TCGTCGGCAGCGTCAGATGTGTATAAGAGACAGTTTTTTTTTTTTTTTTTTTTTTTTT…TC
Conditions: aptamer strand: ATP DNA aptamer (quencher-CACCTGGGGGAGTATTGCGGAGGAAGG + anchor), 100 nM annealed; ATP concentration: 500 uM
Readout Name: switch fluorescence ratio
// return a plain number; no unit text

TCGACCGATT	1.03

Q. State, in one line, measured switch fluorescence ratio of GCCAATTTGC
A. 1.02

Q. State, in one line, measured switch fluorescence ratio of TAGGACGTGG
A. 0.988

Q. State, in one line, measured switch fluorescence ratio of GTTCAGTTTG
A. 1.03

Q. State, in one line, measured switch fluorescence ratio of ACCTGGCATC
A. 1.12

Q. State, in one line, measured switch fluorescence ratio of GCGGCACATA
A. 1.09
